target: Voltage-gated inwardly rectifying potassium channel KCNH2 (Homo sapiens, UniProt Q12809)
Sequence (Q12809 whole entry): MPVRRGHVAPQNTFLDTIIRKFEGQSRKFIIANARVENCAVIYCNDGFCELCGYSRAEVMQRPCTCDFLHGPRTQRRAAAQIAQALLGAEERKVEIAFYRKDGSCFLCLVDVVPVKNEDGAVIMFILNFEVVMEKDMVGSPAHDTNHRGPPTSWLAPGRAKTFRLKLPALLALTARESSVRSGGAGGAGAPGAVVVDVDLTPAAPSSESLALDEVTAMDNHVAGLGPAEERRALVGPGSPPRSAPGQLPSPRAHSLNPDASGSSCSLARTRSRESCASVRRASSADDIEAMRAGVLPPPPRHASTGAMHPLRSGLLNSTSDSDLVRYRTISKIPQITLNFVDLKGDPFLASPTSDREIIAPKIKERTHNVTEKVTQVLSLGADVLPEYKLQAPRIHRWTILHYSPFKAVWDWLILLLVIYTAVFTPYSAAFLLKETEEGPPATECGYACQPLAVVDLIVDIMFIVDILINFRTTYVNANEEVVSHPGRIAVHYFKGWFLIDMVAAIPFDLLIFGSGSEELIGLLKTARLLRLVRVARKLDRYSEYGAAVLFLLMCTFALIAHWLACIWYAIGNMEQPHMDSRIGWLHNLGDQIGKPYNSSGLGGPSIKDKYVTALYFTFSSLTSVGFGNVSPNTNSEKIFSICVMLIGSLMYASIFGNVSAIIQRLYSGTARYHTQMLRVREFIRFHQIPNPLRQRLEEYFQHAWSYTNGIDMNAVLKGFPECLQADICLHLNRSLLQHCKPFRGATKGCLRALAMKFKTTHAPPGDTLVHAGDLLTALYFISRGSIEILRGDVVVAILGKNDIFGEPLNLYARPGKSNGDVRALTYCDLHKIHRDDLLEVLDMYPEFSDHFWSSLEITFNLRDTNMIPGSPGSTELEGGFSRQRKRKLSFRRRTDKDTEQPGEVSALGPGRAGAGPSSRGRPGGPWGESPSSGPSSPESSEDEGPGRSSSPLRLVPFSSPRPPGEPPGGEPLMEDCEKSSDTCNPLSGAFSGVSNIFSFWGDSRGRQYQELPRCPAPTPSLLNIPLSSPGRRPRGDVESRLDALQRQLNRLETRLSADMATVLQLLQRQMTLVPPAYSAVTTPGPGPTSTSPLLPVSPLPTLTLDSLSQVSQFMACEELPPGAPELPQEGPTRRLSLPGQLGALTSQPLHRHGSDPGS
assayInfo: Inhibitory concentration against potassium channel HERG
Kindly state pIC50 for each of the entries shown.
Answers are plain numbers, as −log10 of the molar value.

molecule: CC[C@H](OC(C)=O)C(C[C@H](C)N(C)C)(c1ccccc1)c1ccccc1 [LEVOMETHADYL ACETATE]
target: Voltage-gated inwardly rectifying potassium channel KCNH2 (Homo sapiens, UniProt Q12809)
pIC50: 5.66
--
molecule: COc1ccc2c3c1O[C@H]1[C@@H](O)C=C[C@H]4[C@@H](C2)N(C)CC[C@@]341
target: Voltage-gated inwardly rectifying potassium channel KCNH2 (Homo sapiens, UniProt Q12809)
pIC50: 3.52
--
molecule: COc1cc2nc(N3CCN(C(=O)c4ccco4)CC3)nc(N)c2cc1OC
target: Voltage-gated inwardly rectifying potassium channel KCNH2 (Homo sapiens, UniProt Q12809)
pIC50: 5.80

Prompt line: Please state recorded pIC50 (tested on Voltage-gated inwardly rectifying potassium channel KCNH2 (Homo sapiens, UniProt Q12809)) of CCC(=O)C(CC(C)N(C)C)(c1ccccc1)c1ccccc1 (centres undefined)
Response line: 5.01

Origin of measurements: ChEMBL document CHEMBL1139598
